Where do these numbers come from? They come from patent US7897772B2.

# assay.method.text: Peroral absorbability in beagles: plasma irinotecan level and pharmacokinetic analysis (Example 6)
# Assay type: in vivo
# experimental.parameters: male, beagle, dog, plasma, oral, 10 mg/kg, peroral, 10 mg/kg as irinotecan, 4 h, mean (n=6) ± SD
Where a name gives a salt, the structure may show the parent alone.
measurement.label: concentration at 4 h

compound | measurement.label | val
CCc1c2c(nc3ccc(OC(=O)N4CCC(N5CCCCC5)CC4)cc13)-c1cc3c(c(=O)n1C2)COC(=O)[C@]3(O)CC [hydrochloride, reference compound] | concentration at 4 h | 1620 ng/mL

* * *

# assay.method.text: Three-month room-temperature storage of 20, 30 and 40 mg/mL aqueous solutions, visual observation (Example 5)
# Assay type: physicochemical
# experimental.parameters: 30 mg/mL aqueous solution, three months
measurement.label: Solution state after storage

molecule | measurement.label | val
CCc1c2c(nc3ccc(OC(=O)N4CCC(N5CCCCC5)CC4)cc13)-c1cc3c(c(=O)n1C2)COC(=O)C3(O)CC.O=S(=O)(O)O (stereo not shown) [Sulfuric acid addition salt (2), irinotecan sulfuric acid salt] | Solution state after storage | −
CCc1c2c(nc3ccc(OC(=O)N4CCC(N5CCCCC5)CC4)cc13)-c1cc3c(c(=O)n1C2)COC(=O)[C@]3(O)CC.O=[N+]([O-])O [Nitric acid addition salt (2), irinotecan nitric acid salt] | Solution state after storage | −
CCc1c2c(nc3ccc(OC(=O)N4CCC(N5CCCCC5)CC4)cc13)-c1cc3c(c(=O)n1C2)COC(=O)[C@]3(O)CC.O=P(O)(O)O [Phosphoric acid addition salt (2), irinotecan phosphoric acid salt] | Solution state after storage | −
CCc1c2c(nc3ccc(OC(=O)N4CCC(N5CCCCC5)CC4)cc13)-c1cc3c(c(=O)n1C2)COC(=O)[C@]3(O)CC.O=[N+]([O-])O [Nitric acid addition salt (1), irinotecan nitric acid salt] | Solution state after storage | −
